Data origin: patent US9200046B2

# 200 nL (luminescence) per record follows
- SYSTEM: Nrf2-Keap1 complex (Homo sapiens, UniProt Q14145)
- Sequence (Q14145 whole entry, one chain of several): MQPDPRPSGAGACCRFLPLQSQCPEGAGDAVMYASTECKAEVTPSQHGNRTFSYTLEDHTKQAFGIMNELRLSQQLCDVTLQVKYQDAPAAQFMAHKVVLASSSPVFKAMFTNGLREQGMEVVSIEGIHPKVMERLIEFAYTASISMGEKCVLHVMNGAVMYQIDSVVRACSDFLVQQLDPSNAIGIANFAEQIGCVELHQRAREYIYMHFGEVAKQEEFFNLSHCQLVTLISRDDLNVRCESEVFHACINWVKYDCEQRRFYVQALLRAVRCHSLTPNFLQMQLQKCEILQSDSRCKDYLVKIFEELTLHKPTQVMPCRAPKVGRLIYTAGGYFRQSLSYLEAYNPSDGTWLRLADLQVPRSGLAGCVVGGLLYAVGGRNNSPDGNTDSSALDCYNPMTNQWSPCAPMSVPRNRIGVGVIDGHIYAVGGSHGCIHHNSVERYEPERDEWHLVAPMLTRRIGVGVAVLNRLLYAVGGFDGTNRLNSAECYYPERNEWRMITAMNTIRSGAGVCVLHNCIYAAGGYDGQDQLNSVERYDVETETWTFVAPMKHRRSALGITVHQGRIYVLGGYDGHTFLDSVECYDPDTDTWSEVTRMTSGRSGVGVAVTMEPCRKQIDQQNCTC
- PROTOCOL: cell-based
- Format: cell-based
- CONDITION DETAILS: Table 2; 200 nL compound; screen run at 16 and 32 μM, 3 hr
Structures can show the parent of a compound that is named as a salt.

MOLECULE: CC1(C)C(=O)C=C[C@]2(C)[C@H]3CC[C@@]4(C)[C@H](c5ccoc5)OC(=O)[C@H]5O[C@]54[C@]3(C)C=C[C@@H]12 [7-DESACETOXY-6,7-DEHYDROGEDUNIN]
SYSTEM: Nrf2-Keap1 complex (Homo sapiens, UniProt Q14145)
200 nL (luminescence): 188
--
MOLECULE: CC(=O)O[C@@H]1C[C@H]2C(C)(C)[C@@H](O)CC[C@]2(C)[C@H]2CC[C@@]3(C)[C@H](c4ccoc4)OC(=O)[C@H]4O[C@]43[C@@]21C [beta-DIHYDROGEDUNOL]
SYSTEM: Nrf2-Keap1 complex (Homo sapiens, UniProt Q14145)
200 nL (luminescence): 3252
--
MOLECULE: CC(=O)O[C@@H]1C[C@H]2C(C)(C)C(=O)C=C[C@]2(C)[C@H]2CC[C@@]3(C)[C@H](c4ccoc4)OC(=O)[C@H]4O[C@]43[C@@]21C
SYSTEM: Nrf2-Keap1 complex (Homo sapiens, UniProt Q14145)
200 nL (luminescence): 3708
--
MOLECULE: COc1cc(/C=C/CO)ccc1O
SYSTEM: Nrf2-Keap1 complex (Homo sapiens, UniProt Q14145)
200 nL (luminescence): 2264
--
MOLECULE: COc1cc(O)c(C(=O)/C=C/c2ccccc2)c(OC)c1
SYSTEM: Nrf2-Keap1 complex (Homo sapiens, UniProt Q14145)
200 nL (luminescence): 8
--
MOLECULE: C=C(C)[C@H]1Cc2c(ccc3c2O[C@@H]2COc4cc(OC)c(OC)cc4[C@@H]2C3=O)O1
SYSTEM: Nrf2-Keap1 complex (Homo sapiens, UniProt Q14145)
200 nL (luminescence): 1136
--
MOLECULE: O=C(/C=C/c1ccccc1)c1ccc(O[C@@H]2O[C@H](CO)[C@@H](O)[C@H](O)[C@H]2O)cc1O [2′,4′-DIHYDROXYCHALCONE4′-GLUCOSIDE]
SYSTEM: Nrf2-Keap1 complex (Homo sapiens, UniProt Q14145)
200 nL (luminescence): 2592
--
MOLECULE: CC1(C)C2CC(=O)O[C@@]3(C)C4=CC(=O)O[C@@H](c5ccoc5)[C@]4(C)CCC3[C@@]2(C)C=C[C@H]1O (stereo partly shown)
SYSTEM: Nrf2-Keap1 complex (Homo sapiens, UniProt Q14145)
200 nL (luminescence): 1124
--
MOLECULE: COc1cc(O)c(C(=O)/C=C/c2ccc(O)c(OC)c2)c(OC)c1
SYSTEM: Nrf2-Keap1 complex (Homo sapiens, UniProt Q14145)
200 nL (luminescence): 7512
--
MOLECULE: CN1CCN(CC/C=C2/c3ccccc3Sc3ccc(S(=O)(=O)N(C)C)cc32)CC1 [THIOTHIXENE, reference compound]
SYSTEM: Nrf2-Keap1 complex (Homo sapiens, UniProt Q14145)
200 nL (luminescence): 68
--
MOLECULE: CN1CCc2cccc3c2[C@H]1Cc1ccc(O)c(O)c1-3 [APOMORPHINEHYDROCHLORIDE, reference compound]
SYSTEM: Nrf2-Keap1 complex (Homo sapiens, UniProt Q14145)
200 nL (luminescence): 266
--
MOLECULE: O=c1ccn([C@@H]2O[C@H](COP(=O)([O-])OP(=O)([O-])OP(=O)([O-])O)[C@@H](O)[C@H]2O)c(=O)[nH]1.[Na+].[Na+].[Na+] [URIDINETRIPHOSPHATETRISODIUM]
SYSTEM: Nrf2-Keap1 complex (Homo sapiens, UniProt Q14145)
200 nL (luminescence): 708
--
MOLECULE: CC(C)=CCCC1(C)C=Cc2c(O)c3c(c(CC=C(C)C)c2O1)OC12C(=CCCC1C(C)(C)O[C@@]2(C/C=C(\C)C(=O)O)C(=O)O)C3=O (stereo partly shown)
SYSTEM: Nrf2-Keap1 complex (Homo sapiens, UniProt Q14145)
200 nL (luminescence): 832
